src = patent US9809573B2

# system: GSK3β (Homo sapiens, UniProt P49841)
# Sequence (P49841 whole entry, species assumed): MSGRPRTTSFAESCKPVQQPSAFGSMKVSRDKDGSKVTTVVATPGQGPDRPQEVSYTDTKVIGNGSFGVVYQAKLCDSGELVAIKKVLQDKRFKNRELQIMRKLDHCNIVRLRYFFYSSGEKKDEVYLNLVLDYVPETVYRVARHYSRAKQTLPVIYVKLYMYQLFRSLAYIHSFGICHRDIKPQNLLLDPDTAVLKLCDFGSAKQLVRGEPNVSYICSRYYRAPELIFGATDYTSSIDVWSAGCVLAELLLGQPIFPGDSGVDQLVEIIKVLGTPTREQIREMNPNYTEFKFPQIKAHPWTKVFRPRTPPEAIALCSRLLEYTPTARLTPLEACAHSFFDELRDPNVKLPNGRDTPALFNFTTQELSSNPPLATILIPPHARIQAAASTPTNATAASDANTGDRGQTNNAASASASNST
# assayComment: GSK3β kinase assay (Caliper LabChip3000, fluoresceinated peptide substrate)
# Format: biochemical
Measured pIC50 values are reported for all entries that follow.
pIC50 here is simply -log10 of the concentration when that concentration is written in mol/L.

Short answer for C[C@H]1CN(c2ccncc2NC(=O)c2ccnc(NC(=O)C3CC3)c2)CCO1 (single isomer, unassigned) [Example 78] : pIC50 was 9.00

Short answer for C=C(C)c1ccncc1NC(=O)c1ccnc(NC(=O)C2CC2)c1 [Example 38] : pIC50 was 8.36

Short answer for O=C(Nc1cncc(Oc2ccccc2)c1)c1ccnc(NC(=O)C2CC2)c1 [Example 107] : pIC50 was 7.72
